- Tested on: MRC-5 (human lung fibroblast)
- assay method text: Cytotoxic activity, alamar blue assay, MRC-5 non-cancer cells
- Assay type: cell-based
- measurement conditions: 72 h incubation
reported metric: IC50

Sure, the documented IC50 for O=C1[O][Pt]2([NH][C@@H]3CCCC[C@H]3[NH]2)[O]C1=O [OXA, oxaliplatin] is 1.4 µM

---

- Test system: PBMC (human peripheral blood mononuclear cells)
- assay method text: Cytotoxic activity, alamar blue assay, PBMC non-cancer cells
- Assay type: cell-based
- measurement conditions: Homo sapiens, PBMC, 72 h incubation
reported metric: IC50 (µM)
Response body: numeric value in µM, unit text excluded.

O=c1[nH]cc(F)c(=O)[nH]1: 78

# input for lookup
# molecule COc1cccc2c1C(=O)c1c(O)c3c(c(O)c1C2=O)C[C@@](O)(C(=O)CO)C[C@@H]3O[C@H]1C[C@H](N)[C@H](O)[C@H](C)O1 ; its IC50 = 5.1
